Each record here notes measured ELISA_avg.
Molecular target: T1, recombinant human CD123-Fc (human, UniProt P26951 19-305)
T1 construct: not shown: Fc part of CD123-Fc
T1 sequence: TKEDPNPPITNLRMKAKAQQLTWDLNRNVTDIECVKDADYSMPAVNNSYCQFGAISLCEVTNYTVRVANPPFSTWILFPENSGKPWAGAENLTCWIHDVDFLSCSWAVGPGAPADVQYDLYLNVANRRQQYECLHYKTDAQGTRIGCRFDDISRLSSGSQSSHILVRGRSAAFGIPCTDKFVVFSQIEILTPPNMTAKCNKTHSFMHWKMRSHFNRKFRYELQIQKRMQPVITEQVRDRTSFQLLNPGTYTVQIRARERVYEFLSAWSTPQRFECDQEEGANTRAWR
Assay: phage ELISA, A450 target/A450 IgG1-Fc
Reply with a number, then the unit it belongs to.

Worked cases, ELISA_avg given:
binder	ELISA_avg
SEQ ID NO 650 (designed binder) MGSWWEFTDRLEAIEDRLWALGGSEAELAHFEDSIAQFEQELQWYKGKGNPEVEALADEADAIESELHAYRHN	16.6 ratio
SEQ ID NO 691 (designed binder) MGSWYEFEDRLDAIQWRLWALGGSEAELAAFEKEIAAFESELQAYKGKGNPEVEFLRESAANIRQHLQAYRHN	6.3 ratio
SEQ ID NO 640 (designed binder) MGSWAEFEDRLAAIERRLEALGGSEAELADFESSIAWFEPDLQYYKGKGNPEVEALMYEAEAIFSELYAYRHN	4.2 ratio
SEQ ID NO 738 (designed binder) MGSWFEFEIRLEAIEDRLFALGGSEAELAAFEKEIAAFESELQAYKGKGNPEVEFLRDEAAEIRQVLQAYRHN	3 ratio

Next binder, ELISA_avg to be filled in.
[Q] Please look at this binder and report its ELISA_avg: SEQ ID NO 673 (designed binder) MGSWDEFDDRLEAIVDRLFALGGSEAELAMFEFEIAQFEHQLQYYKGKGNPEVEALRDEADAIWIELDAYRHN
[A] 5.6 ratio
